assay_remarks: Drug distribution in Sprague-Dawley rat large intestine tissue measured at 24 hrs
Assay type: ADME, tissue-based
test_parameters: read-out: Ct
metric: concentration at 24 h
I'd appreciate it if you wrote the number followed by its unit.

Ask: Which concentration at 24 h is listed for `CO[C@H]1/C=C/O[C@@]2(C)Oc3c(C)c(O)c4c(c3C2=O)C2=NC3(CCN(CCn5c([N+](=O)[O-])cnc5C)CC3)NC2=C(NC(=O)/C(C)=C\C=C\[C@H](C)[C@H](O)[C@@H](C)[C@@H](O)[C@@H](C)[C@H](OC(C)=O)[C@@H]1C)C4=O` ?
Reply: 7.26 ng/g

* * *

assay_remarks: Drug distribution in Sprague-Dawley rat stomach tissue measured at 2 hrs
Type: ADME, tissue-based
test_parameters: read-out: Ct
metric: concentration at 2 h (ng/g)
Lab book: enter the figure in ng/g, no units written.

Ask: Which concentration at 2 h is listed for `CO[C@H]1/C=C/O[C@@]2(C)Oc3c(C)c(O)c4c(c3C2=O)C2=NC3(CCN(CCn5c([N+](=O)[O-])cnc5C)CC3)NC2=C(NC(=O)/C(C)=C\C=C\[C@H](C)[C@H](O)[C@@H](C)[C@@H](O)[C@@H](C)[C@H](OC(C)=O)[C@@H]1C)C4=O` ?
Reply: 72500

* * *

assay_remarks: Volume of distribution at steady state in Sprague-Dawley rat at 10 mg/kg, iv
Format: ADME, organism-based
test_parameters: in vivo, read-out: Vdss
metric: Vd (L/kg)
Lab book: enter the figure in L/kg, no units written.

Ask: Which Vd is listed for `CO[C@H]1/C=C/O[C@@]2(C)Oc3c(C)c(O)c4c(c3C2=O)C2=NC3(CCN(CCn5c([N+](=O)[O-])cnc5C)CC3)NC2=C(NC(=O)/C(C)=C\C=C\[C@H](C)[C@H](O)[C@@H](C)[C@@H](O)[C@@H](C)[C@H](OC(C)=O)[C@@H]1C)C4=O` ?
Reply: 1.6

* * *

assay_remarks: Tmax in Beagle dog at 25 mg/kg, po
Assay type: ADME, organism-based, Canis lupus familiaris
test_parameters: in vivo
metric: Tmax (h)
Lab book: enter the figure in h, no units written.

Ask: Which Tmax is listed for `CO[C@H]1/C=C/O[C@@]2(C)Oc3c(C)c(O)c4c(c3C2=O)C2=NC3(CCN(CCn5c([N+](=O)[O-])cnc5C)CC3)NC2=C(NC(=O)/C(C)=C\C=C\[C@H](C)[C@H](O)[C@@H](C)[C@@H](O)[C@@H](C)[C@H](OC(C)=O)[C@@H]1C)C4=O` ?
Reply: 1.2

* * *

assay_remarks: Drug distribution in Sprague-Dawley rat stomach content measured at 6 hrs
Assay type: ADME, tissue-based
test_parameters: read-out: Ct
metric: concentration at 6 h (ng/g)
Lab book: enter the figure in ng/g, no units written.

Ask: Which concentration at 6 h is listed for `CO[C@H]1/C=C/O[C@@]2(C)Oc3c(C)c(O)c4c(c3C2=O)C2=NC3(CCN(CCn5c([N+](=O)[O-])cnc5C)CC3)NC2=C(NC(=O)/C(C)=C\C=C\[C@H](C)[C@H](O)[C@@H](C)[C@@H](O)[C@@H](C)[C@H](OC(C)=O)[C@@H]1C)C4=O` ?
Reply: 28800

* * *

assay_remarks: Drug distribution in Sprague-Dawley rat large intestine content measured at 12 hrs
Type: ADME, tissue-based
test_parameters: read-out: Ct
metric: concentration at 12 h (ng/g)
Lab book: enter the figure in ng/g, no units written.

Ask: Which concentration at 12 h is listed for `CO[C@H]1/C=C/O[C@@]2(C)Oc3c(C)c(O)c4c(c3C2=O)C2=NC3(CCN(CCn5c([N+](=O)[O-])cnc5C)CC3)NC2=C(NC(=O)/C(C)=C\C=C\[C@H](C)[C@H](O)[C@@H](C)[C@@H](O)[C@@H](C)[C@H](OC(C)=O)[C@@H]1C)C4=O` ?
Reply: 2980

* * *

assay_remarks: Drug distribution in Sprague-Dawley rat brain measured at 2 hrs
Type: ADME, tissue-based
test_parameters: read-out: Ct
metric: concentration at 2 h (ng/g)
Lab book: enter the figure in ng/g, no units written.

Ask: Which concentration at 2 h is listed for CO[C@H]1/C=C/O[C@@]2(C)Oc3c(C)c(O)c4c(c3C2=O)C2=NC3(CCN(CCn5c([N+](=O)[O-])cnc5C)CC3)NC2=C(NC(=O)/C(C)=C\C=C\[C@H](C)[C@H](O)[C@@H](C)[C@@H](O)[C@@H](C)[C@H](OC(C)=O)[C@@H]1C)C4=O [RIFASUTENIZOL] ?
Reply: 392

* * *

assay_remarks: Drug distribution in Sprague-Dawley rat large intestine tissue measured at 12 hrs
Type: ADME, tissue-based
test_parameters: read-out: Ct
metric: concentration at 12 h (ng/g)
Lab book: enter the figure in ng/g, no units written.

Ask: Which concentration at 12 h is listed for `CO[C@H]1/C=C/O[C@@]2(C)Oc3c(C)c(O)c4c(c3C2=O)C2=NC3(CCN(CCn5c([N+](=O)[O-])cnc5C)CC3)NC2=C(NC(=O)/C(C)=C\C=C\[C@H](C)[C@H](O)[C@@H](C)[C@@H](O)[C@@H](C)[C@H](OC(C)=O)[C@@H]1C)C4=O` ?
Reply: 31.6

* * *

assay_remarks: Drug distribution in Sprague-Dawley rat plasma measured at 12 hrs
Type: ADME, cell-free
metric: concentration at 12 h (ng/mL)
Lab book: enter the figure in ng/mL, no units written.

Ask: Which concentration at 12 h is listed for `CO[C@H]1/C=C/O[C@@]2(C)Oc3c(C)c(O)c4c(c3C2=O)C2=NC3(CCN(CCn5c([N+](=O)[O-])cnc5C)CC3)NC2=C(NC(=O)/C(C)=C\C=C\[C@H](C)[C@H](O)[C@@H](C)[C@@H](O)[C@@H](C)[C@H](OC(C)=O)[C@@H]1C)C4=O` ?
Reply: 4.33

* * *

assay_remarks: Drug distribution in Sprague-Dawley rat vaginal secretion measured at 24 hrs
Type: ADME, tissue-based, Vaginal fluid
test_parameters: female, read-out: Ct
metric: concentration at 24 h (ng/g)
Lab book: enter the figure in ng/g, no units written.

Ask: Which concentration at 24 h is listed for `CO[C@H]1/C=C/O[C@@]2(C)Oc3c(C)c(O)c4c(c3C2=O)C2=NC3(CCN(CCn5c([N+](=O)[O-])cnc5C)CC3)NC2=C(NC(=O)/C(C)=C\C=C\[C@H](C)[C@H](O)[C@@H](C)[C@@H](O)[C@@H](C)[C@H](OC(C)=O)[C@@H]1C)C4=O` ?
Reply: 54.6

* * *

assay_remarks: Drug distribution in Sprague-Dawley rat gums measured at 6 hrs
Format: ADME, tissue-based, Gingiva
test_parameters: read-out: Ct
metric: concentration at 6 h (ng/g)
Lab book: enter the figure in ng/g, no units written.

Ask: Which concentration at 6 h is listed for `CO[C@H]1/C=C/O[C@@]2(C)Oc3c(C)c(O)c4c(c3C2=O)C2=NC3(CCN(CCn5c([N+](=O)[O-])cnc5C)CC3)NC2=C(NC(=O)/C(C)=C\C=C\[C@H](C)[C@H](O)[C@@H](C)[C@@H](O)[C@@H](C)[C@H](OC(C)=O)[C@@H]1C)C4=O` ?
Reply: 3660

* * *

assay_remarks: Drug distribution in Sprague-Dawley rat large intestine content measured at 6 hrs
Format: ADME, tissue-based
test_parameters: read-out: Ct
metric: concentration at 6 h (ng/g)
Lab book: enter the figure in ng/g, no units written.

Ask: Which concentration at 6 h is listed for CO[C@H]1/C=C/O[C@@]2(C)Oc3c(C)c(O)c4c(c3C2=O)C2=NC3(CCN(CCn5c([N+](=O)[O-])cnc5C)CC3)NC2=C(NC(=O)/C(C)=C\C=C\[C@H](C)[C@H](O)[C@@H](C)[C@@H](O)[C@@H](C)[C@H](OC(C)=O)[C@@H]1C)C4=O [RIFASUTENIZOL] ?
Reply: 84300

* * *

assay_remarks: Half life in Sprague-Dawley rat at 10 mg/kg, iv
Format: ADME, organism-based
test_parameters: in vivo
metric: half-life

Ask: Which half-life is listed for `CO[C@H]1/C=C/O[C@@]2(C)Oc3c(C)c(O)c4c(c3C2=O)C2=NC3(CCN(CCn5c([N+](=O)[O-])cnc5C)CC3)NC2=C(NC(=O)/C(C)=C\C=C\[C@H](C)[C@H](O)[C@@H](C)[C@@H](O)[C@@H](C)[C@H](OC(C)=O)[C@@H]1C)C4=O` ?
Reply: 46.2 min

* * *

assay_remarks: Drug distribution in Sprague-Dawley rat vaginal secretion measured at 2 hrs
Type: ADME, tissue-based, Vaginal fluid
test_parameters: female, read-out: Ct
metric: concentration at 2 h (ng/g)
Lab book: enter the figure in ng/g, no units written.

Ask: Which concentration at 2 h is listed for CO[C@H]1/C=C/O[C@@]2(C)Oc3c(C)c(O)c4c(c3C2=O)C2=NC3(CCN(CCn5c([N+](=O)[O-])cnc5C)CC3)NC2=C(NC(=O)/C(C)=C\C=C\[C@H](C)[C@H](O)[C@@H](C)[C@@H](O)[C@@H](C)[C@H](OC(C)=O)[C@@H]1C)C4=O [RIFASUTENIZOL] ?
Reply: 43700
